Values compiled from paper PMC3262960.

# target.of.assay: UniProt:Q9ULW8
# Sequence (Q9ULW8 1-664): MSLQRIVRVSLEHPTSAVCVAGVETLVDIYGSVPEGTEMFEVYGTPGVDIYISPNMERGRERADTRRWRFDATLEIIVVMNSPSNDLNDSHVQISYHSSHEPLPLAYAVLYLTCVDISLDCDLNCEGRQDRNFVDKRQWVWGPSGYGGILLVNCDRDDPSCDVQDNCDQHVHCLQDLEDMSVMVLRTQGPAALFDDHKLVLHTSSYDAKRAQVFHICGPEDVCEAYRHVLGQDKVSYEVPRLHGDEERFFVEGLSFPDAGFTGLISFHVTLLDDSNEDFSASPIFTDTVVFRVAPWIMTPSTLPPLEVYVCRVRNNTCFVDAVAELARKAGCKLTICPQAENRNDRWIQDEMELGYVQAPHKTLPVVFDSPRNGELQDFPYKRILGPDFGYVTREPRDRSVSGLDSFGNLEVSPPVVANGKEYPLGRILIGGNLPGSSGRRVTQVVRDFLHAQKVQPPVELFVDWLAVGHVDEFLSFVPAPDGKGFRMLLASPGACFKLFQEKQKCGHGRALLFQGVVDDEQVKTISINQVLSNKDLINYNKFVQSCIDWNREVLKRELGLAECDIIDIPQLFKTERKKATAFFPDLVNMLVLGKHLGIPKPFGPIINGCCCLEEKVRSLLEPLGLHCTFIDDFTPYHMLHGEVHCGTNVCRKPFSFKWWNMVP
# procedure.details: PAD3 inhibition, IC50 determination
# Assay type: biochemical
# run.conditions: read-out: IC50 PAD3
reported.endpoint: IC50
Please state the number and follow it with the unit.

Look up IC50 for this compound: CC(=O)N[C@H](C(=O)N[C@@H](CC(=O)O)C(=O)N[C@@H](CCCN=C(N)CF)C(N)=O)[C@@H](C)O [TDFA, Thr-Asp-F-amidine]
26 µM

---

# target.of.assay: PAD2 (Homo sapiens)
# Sequence (Q9Y2J8 whole entry): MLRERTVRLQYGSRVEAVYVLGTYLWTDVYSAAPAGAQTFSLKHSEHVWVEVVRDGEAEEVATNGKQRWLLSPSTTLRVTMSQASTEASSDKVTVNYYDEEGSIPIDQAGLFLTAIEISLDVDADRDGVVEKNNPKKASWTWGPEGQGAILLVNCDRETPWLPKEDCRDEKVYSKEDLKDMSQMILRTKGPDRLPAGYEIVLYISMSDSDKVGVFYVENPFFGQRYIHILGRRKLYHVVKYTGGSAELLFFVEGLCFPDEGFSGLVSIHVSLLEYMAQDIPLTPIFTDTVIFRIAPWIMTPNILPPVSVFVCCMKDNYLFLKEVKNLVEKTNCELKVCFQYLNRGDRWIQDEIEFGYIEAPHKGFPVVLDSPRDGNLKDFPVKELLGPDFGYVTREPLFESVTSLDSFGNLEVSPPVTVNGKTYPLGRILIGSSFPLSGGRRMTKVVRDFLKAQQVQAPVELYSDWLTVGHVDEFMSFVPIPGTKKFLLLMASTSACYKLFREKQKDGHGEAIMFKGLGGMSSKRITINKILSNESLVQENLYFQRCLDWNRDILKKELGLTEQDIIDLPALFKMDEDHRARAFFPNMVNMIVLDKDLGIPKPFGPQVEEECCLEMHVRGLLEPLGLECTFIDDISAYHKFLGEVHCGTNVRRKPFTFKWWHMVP
reported.endpoint: pIC50
// scale note: pIC50 = -log10(conc_M); give the bare number

Look up pIC50 for this molecule: `CC(=O)N[C@H](C(=O)N[C@@H](CC(=O)O)C(=O)N[C@@H](CCCN=C(N)CF)C(N)=O)[C@@H](C)O`
4.15

---

# target.of.assay: PAD1 (Homo sapiens)
# Sequence (Q9ULC6 1-663): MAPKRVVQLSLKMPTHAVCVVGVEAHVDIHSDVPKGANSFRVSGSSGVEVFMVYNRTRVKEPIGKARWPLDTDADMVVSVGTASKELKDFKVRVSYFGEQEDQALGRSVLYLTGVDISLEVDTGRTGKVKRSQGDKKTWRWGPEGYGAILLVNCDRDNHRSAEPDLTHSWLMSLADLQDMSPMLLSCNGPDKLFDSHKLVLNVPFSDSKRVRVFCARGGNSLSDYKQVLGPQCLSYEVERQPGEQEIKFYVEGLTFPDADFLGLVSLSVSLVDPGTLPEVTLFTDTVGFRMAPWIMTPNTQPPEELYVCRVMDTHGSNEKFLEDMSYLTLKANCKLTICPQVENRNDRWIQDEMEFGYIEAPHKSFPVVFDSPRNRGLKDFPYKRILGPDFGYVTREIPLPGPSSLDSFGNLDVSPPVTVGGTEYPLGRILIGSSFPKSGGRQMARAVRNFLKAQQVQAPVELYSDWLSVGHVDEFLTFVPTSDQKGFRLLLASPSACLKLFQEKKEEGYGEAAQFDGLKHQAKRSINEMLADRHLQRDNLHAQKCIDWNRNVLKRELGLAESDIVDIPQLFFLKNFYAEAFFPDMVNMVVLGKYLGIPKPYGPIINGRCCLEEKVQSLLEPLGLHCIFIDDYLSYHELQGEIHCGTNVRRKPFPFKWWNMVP
# procedure.details: PAD1 inhibition, IC50 determination
# Format: biochemical
# run.conditions: read-out: IC50 PAD1
reported.endpoint: IC50 (µM)
Numeric only. Scale: µM

Look up IC50 for this molecule: `CC(=O)N[C@H](C(=O)N[C@@H](CC(=O)O)C(=O)N[C@@H](CCCN=C(N)CF)C(N)=O)[C@@H](C)O`
8.5
